# protocol: Compatibility of cationic antibacterial agent with sodium citrate solution
# Assay type: physicochemical
# cond: 20% sodium citrate solution mixed 1:1 with 0.2% agent solution, room temperature, dark, 7 days
quantityName: Phenomenon (compatibility with sodium citrate solution)

Example cases with answers are listed next.
Request: Endpoint output: Phenomenon (compatibility with sodium citrate solution) of CC(=O)O.CC(=O)O.NC(=N\CCCCCC/N=C(N)/N=C(\N)Nc1ccc(Cl)cc1)/N=C(\N)Nc1ccc(Cl)cc1 [chlorhexidine acetate, reference compound] . Value?
Result: +

Request: Endpoint output: Phenomenon (compatibility with sodium citrate solution) of CCCCCCCCCCCC[N+](C)(C)C.[Cl-] [dodecyl trimethyl ammonium chloride] . Value?
Result: −

Request: Endpoint output: Phenomenon (compatibility with sodium citrate solution) of N=C(NCCCCCCNC(=N)NC(=N)Nc1ccc(Cl)cc1)NC(=N)Nc1ccc(Cl)cc1.O=C(O)[C@H](O)[C@@H](O)[C@H](O)[C@H](O)CO.O=C(O)[C@H](O)[C@@H](O)[C@H](O)[C@H](O)CO [chlorhexidine gluconate, reference compound] . Value?
Result: +

Request: Endpoint output: Phenomenon (compatibility with sodium citrate solution) of CCCCCCCCCCCC[N+](C)(C)Cc1ccccc1.[Cl-] . Value?
Result: −

Request: Endpoint output: Phenomenon (compatibility with sodium citrate solution) of CCCCCCCCCCCCCCCC[n+]1ccccc1.[Cl-] [hexadecyl pyridinium chloride, reference compound] . Value?
Result: −

Consider the additional molecule presented here.
Request: Endpoint output: Phenomenon (compatibility with sodium citrate solution) of CCCCCCCCCCCC[N+](C)(C)Cc1ccccc1.[Br-] [dodecyl dimethyl benzyl ammonium bromide] . Value?
Result: −
